Target: PRMT5/MEP50 complex (Homo sapiens (Human))
Sequence (O14744 whole entry): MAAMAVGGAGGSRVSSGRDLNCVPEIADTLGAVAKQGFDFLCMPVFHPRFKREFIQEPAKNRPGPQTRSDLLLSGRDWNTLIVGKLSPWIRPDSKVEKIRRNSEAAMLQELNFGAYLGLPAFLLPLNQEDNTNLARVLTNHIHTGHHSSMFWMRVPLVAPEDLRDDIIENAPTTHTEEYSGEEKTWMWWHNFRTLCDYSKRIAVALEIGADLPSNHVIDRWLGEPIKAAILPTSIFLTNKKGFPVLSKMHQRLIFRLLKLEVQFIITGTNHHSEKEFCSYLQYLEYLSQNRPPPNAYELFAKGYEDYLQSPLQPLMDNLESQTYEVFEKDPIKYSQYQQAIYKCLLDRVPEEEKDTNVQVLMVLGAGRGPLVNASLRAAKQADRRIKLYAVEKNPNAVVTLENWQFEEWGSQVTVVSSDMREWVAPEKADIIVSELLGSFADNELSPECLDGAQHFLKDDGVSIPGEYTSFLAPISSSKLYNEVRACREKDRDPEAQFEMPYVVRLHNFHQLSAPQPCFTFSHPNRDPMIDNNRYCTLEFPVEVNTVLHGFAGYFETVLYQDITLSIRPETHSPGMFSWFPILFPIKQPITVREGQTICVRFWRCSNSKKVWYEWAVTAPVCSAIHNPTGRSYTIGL
Sequence (Q9BQA1 whole entry partner): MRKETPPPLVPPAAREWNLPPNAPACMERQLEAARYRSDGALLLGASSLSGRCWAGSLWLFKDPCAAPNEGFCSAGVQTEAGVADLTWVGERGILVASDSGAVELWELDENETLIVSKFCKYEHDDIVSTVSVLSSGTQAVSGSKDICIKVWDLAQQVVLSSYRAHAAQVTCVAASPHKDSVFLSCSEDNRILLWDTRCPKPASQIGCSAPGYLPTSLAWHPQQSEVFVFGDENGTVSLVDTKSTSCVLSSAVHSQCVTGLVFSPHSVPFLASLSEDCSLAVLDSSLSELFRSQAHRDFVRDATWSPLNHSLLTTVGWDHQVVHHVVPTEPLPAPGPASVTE
Test: PRMT5 biochemical assay (3H-SAM filter plate, histone H2A substrate)
Conditions: PRMT5/MEP50 5 nM, histone H2A 5 μM, SAM 1 μM; read-out: PRMT5 IC50
Assign labels as follows, please: label 1 for IC50 below 0.006 µM; label 0 for IC50 equal to or exceeding 0.006 µM.

[
  {
    "COMPOUND": "Cc1cnc2cc(OC[C@H]3O[C@@H](n4ccc5c(N)ncnc54)[C@H](O)[C@]3(C)O)ccn12 [Example 68]",
    "GROUP_LABEL": "label 1"
  },
  {
    "COMPOUND": "Cc1cc([C@@H](O)[C@H]2O[C@@H](n3ccc4c(C)ncnc43)[C@H](O)[C@]2(C)O)ccc1Cl [Example 57]",
    "GROUP_LABEL": "label 0"
  },
  {
    "COMPOUND": "C[C@@]1(O)[C@@H](COc2ccccc2)O[C@@H](n2ccc3c(N)ncnc32)[C@@H]1O [Example 20]",
    "GROUP_LABEL": "label 0"
  },
  {
    "COMPOUND": "C[C@@]1(O)[C@@H](COc2ccc3cccnc3c2)O[C@@H](n2ccc3c(N)ncnc32)[C@@H]1O [Example 53]",
    "GROUP_LABEL": "label 1"
  },
  {
    "COMPOUND": "C[C@@]1(O)[C@@H](COc2cccc(CN)c2)O[C@@H](n2ccc3c(N)ncnc32)[C@@H]1O [Example 22]",
    "GROUP_LABEL": "label 0"
  }
]

---

Target: PRMT5/MEP50 complex (Homo sapiens (Human))
Test: PRMT5 biochemical assay (3H-SAM filter plate, histone H2A substrate)
Conditions: PRMT5/MEP50 5 nM, histone H2A 5 μM, SAM 1 μM; read-out: PRMT5 IC50
pIC50: −log10 of the molar value.
Where pIC50 equals or exceeds 7, the correct label is MET; where it does not, the label is NOT MET.

[
  {
    "COMPOUND": "CO/N=c1/nc[nH]c2c1ccn2[C@@H]1O[C@H]([C@H](O)c2ccc(Cl)c(Cl)c2)[C@@](C)(O)[C@H]1O [Example 37]",
    "GROUP_LABEL": "NOT MET"
  },
  {
    "COMPOUND": "C[C@@]1(O)[C@@H](COc2cccc(NC(N)=O)c2)O[C@@H](n2ccc3c(Cl)ncnc32)[C@@H]1O [Example 41]",
    "GROUP_LABEL": "NOT MET"
  },
  {
    "COMPOUND": "C[C@@]1(O)[C@@H](Cc2ccc3c(c2)OCO3)O[C@@H](n2ccc3c(N)ncnc32)[C@@H]1O [Example 49]",
    "GROUP_LABEL": "NOT MET"
  },
  {
    "COMPOUND": "C#C[C@@]1(O)[C@@H](COc2ccc3ccc(N)nc3c2)O[C@@H](n2ccc3c(N)ncnc32)[C@@H]1O [Example 3]",
    "GROUP_LABEL": "MET"
  },
  {
    "COMPOUND": "Nc1ccc2ccc(OC[C@H]3O[C@@H](n4ccc5c(N)ncnc54)[C@H](O)[C@@]3(O)C(F)(F)F)cc2n1 [Example 2]",
    "GROUP_LABEL": "MET"
  },
  {
    "COMPOUND": "Cc1ncnc2c1ccn2[C@@H]1O[C@H]([C@H](O)c2ccc(C(F)(F)F)cc2)[C@@](C)(O)[C@H]1O [Example 62]",
    "GROUP_LABEL": "MET"
  },
  {
    "COMPOUND": "Cc1ncnc2c1ccn2[C@@H]1O[C@H]([C@H](O)c2ccc(F)c(C(F)(F)F)c2)[C@@](C)(O)[C@H]1O [Example 61]",
    "GROUP_LABEL": "MET"
  }
]
